System: MDA-MB-231 breast
Assay: NCI-60 one-dose screen, 48 h (100 = growth as untreated, 0 = no growth, -100 = all killed)
Details: 10 µM unless noted
This is part of a sample that, as a whole, favours compounds with a hit. Of some 83,000 tested, about 20% had one in any assay.
Readout kind: growth (%)
Answer format: numeric, % implied, no suffix.

Look up growth for this compound: CCCCCN(CCCCC)C(=O)C(CCC(=O)O)NC(=O)c1ccc(Cl)c(Cl)c1 (stereo not given)
88.1

Would you mind doing CSC1=N/C(=C\c2cccc(OCc3ccc(Cl)cc3)c2)C(=O)N1 as well?
99.8

Would you mind doing COc1ccc(C2NC(=O)c3cc4c(cc3N2)OCO4)cc1 (stereo not given) as well?
31.3

Would you mind doing COC(=O)c1ccc2c(c1)nc(-c1cc3ccccc3[nH]c1=O)n2-c1cc(C(C)(C)C)[nH]n1 as well?
68.4

Would you mind doing Cc1cc(N)cc(C)c1-c1c(Br)cc(N)cc1Br as well?
42.6

Would you mind doing CC(C)(c1ccccc1)c1cc(O)c(C(C)(C)c2ccccc2)cc1O as well?
-1.39

Would you mind doing CCOC(=O)Cn1c(-c2nonc2NC(=O)c2ccccc2F)nc2ccccc21 as well?
62.8

Would you mind doing COc1ccc(-c2cnc(-c3ccncc3-c3cccc(OC)c3)o2)cc1 as well?
-9.9

Would you mind doing CC(C)(C)c1cc(C[P+](c2ccccc2)(c2ccccc2)c2ccccc2)cc(C(C)(C)C)c1O as well?
27.9

Would you mind doing COc1ccc(/C=C/c2nc3ccccc3c(=O)n2-c2ccc(C#Cc3ccc(C(C)(C)C)cc3)cc2C)c(OC)c1 as well?
89.5

* * *

Tested on: TK-10 renal
Assay: NCI-60 one-dose screen, 48 h (100 = growth as untreated, 0 = no growth, -100 = all killed)
Details: 10 µM unless noted
About 83,000 compounds went through this panel and 20% of them were active in at least one assay; those are over-represented in the sample as a whole.
Readout kind: growth (%)
Answer format: numeric, % implied, no suffix.

Look up growth for this compound: COc1cc2ccc(C(C)=O)cc2cc1OC
138

Would you mind doing O=S(=O)(Nc1ccc2ccccc2c1)N1CCCCC1 as well?
86.8

Would you mind doing CC(C)=CC[C@@H]1CC2(CC=C(C)C)C(=O)C(OC3(C(=O)c4ccccc4)C(=O)C4(CC=C(C)C)C[C@@H](CC=C(C)C)C(C)(C)C(CC=C(C)C)(C4=O)C3=O)(C(=O)c3ccccc3)C(=O)C(CC=C(C)C)(C2=O)C1(C)C (some centres not stated) as well?
3.06

Would you mind doing CCNCCCn1c2c(c3ccc(Cl)cc3c1=O)C(=O)c1cc(OC)cnc1-2 as well?
39.9

Would you mind doing CCN1C(=O)C(C)C=C(C)C=C1C (configuration not stated) as well?
105

Would you mind doing O=C(CC(=O)c1ccccc1F)Nc1ccc([N+](=O)[O-])cc1 as well?
91.7

Would you mind doing O=C(CCCCCCN1CC(=O)N2[C@@H](c3ccc(Cl)c(Cl)c3)c3[nH]c4ccccc4c3C[C@H]2C1=O)NO as well?
40.3

Would you mind doing O=C(c1ccc(OCCN2CCCCC2)cc1)c1c(-c2ccc(O)cc2)sc2cc(O)ccc12 as well?
129

Would you mind doing COc1ccccc1-[n+]1cc(-c2ccc(-c3ccccc3)cc2)n2c1CCCCC2 as well?
7.69

Would you mind doing Cc1nc(N)nc2c1CCC(Nc1ccccc1)S2 (configuration not stated) as well?
105

Would you mind doing CN1C(=O)C(C(=O)/C=C/c2ccccc2C(=O)O)C(=O)N(C)C1=O as well?
102

Would you mind doing O=C1CCCN1C1CCN2CCCc3cccc1c32 (configuration not stated) as well?
103

Would you mind doing CC(=O)Oc1ccccc1C(=O)Nc1ncc([N+](=O)[O-])s1 as well?
19.4

Would you mind doing CCCCSc1ncnc2c1ncn2C1CCCCO1 (configuration not stated) as well?
109

Would you mind doing CC[C@]1(O)C[C@H]2CN(CCc3c([nH]c4ccccc34)C(C(=O)OC)(c3cc4c(cc3OC)N(C)[C@H]3[C@@](O)(C(=O)OC)[C@H](OC(C)=O)[C@]5(CC)[C@@H]6C[C@@H]6CN6CC[C@]43[C@@H]65)C2)C1 (some centres not stated) as well?
52.7

Would you mind doing COc1ccc(Cl)cc1Nc1nc(C(F)(F)F)ccc1C(=O)NN as well?
26.1

Would you mind doing COc1cc2c(=O)n(CCCN(C)C)c3c4cc[nH]c4ncc3c2cc1OC as well?
53.7

Would you mind doing O=C(Nc1cccc(Cl)c1)Nc1ccccc1Cl as well?
88.5

Would you mind doing COc1ccc(C(=O)O)cc1.[Ag] as well?
106

Would you mind doing C(=Nc1ccc(-c2ccc(N=Cc3ccccc3)cc2)cc1)c1ccccc1 as well?
110

Would you mind doing Clc1ccccc1CNc1c2ccccc2nc2ccccc12 as well?
42.5

Would you mind doing COc1cc2c(c(OC)c1O)C(=O)C(OC)C(c1ccc(O)c(O)c1)O2 (configuration not stated) as well?
66.1

* * *

System: EKVX NSCLC
Experiment: NCI-60 one-dose screen, 48 h (100 = growth as untreated, 0 = no growth, -100 = all killed)
Conditions: 10 µM unless noted
Experimental: Growth inhibition of the EKVX human Non-Small Cell Lung tumor cell line is measured as a screen for anti-cancer activity. Cells are grown in 96 well plates and exposed to the test compound for 48 hours. Compounds are tested at a single concentration, which is 10^-5 M for most compounds. The reported endpoint is percent growth (GI% or GIPRCNT), where numbers from 0 - 100% represent growth inhibition, and numbers from -100% - 0 represent cell death. […]
Compounds without any hit were thinned out: in the full panel of roughly 83,000, 20% have a hit.
Readout kind: growth (%)
Answer format: numeric, % implied, no suffix.

Look up growth for this molecule: CN(C)c1ccc(/C=C\c2cccc[n+]2C)cc1
23

Would you mind doing COc1cc(Cl)cc(-c2nn(C(=O)NCCN3CCOCC3)cc2-c2ccncc2)c1 as well?
93.4

Would you mind doing Oc1c(C(Nc2cccc3ccccc23)c2ccccc2)ccc2cccnc12 (stereo not given) as well?
31

Would you mind doing O=C1/C=C/[C@@H](O)[C@@H]2C[C@@H](O)C[C@H]2/C=C/CCC[C@H]([C@@H](O)CO)O1 as well?
96.6

Would you mind doing CCN1C(=O)N(CC)C2C1NC(=O)N2/N=C/C=C/c1ccccc1 (stereo not given) as well?
53.8

* * *

Test system: IGROV1 ovarian
Assay: NCI-60 one-dose screen, 48 h (100 = growth as untreated, 0 = no growth, -100 = all killed)
Conditions: 10 µM unless noted
Procedure: Growth inhibition of the IGROV1 human tumor cell line is measured as a screen for anti-cancer activity. Cells are grown in 96 well plates and exposed to the test compound for 48 hours. Compounds are tested at a single concentration, which is 10^-5 M for most compounds. The reported endpoint is percent growth (GI% or GIPRCNT), where numbers from 0 - 100% represent growth inhibition, and numbers from -100% - 0 represent cell death. For example, a value of 40 represents 60% growth inhibition. […]
Compounds without any hit were thinned out: in the full panel of roughly 83,000, 20% have a hit. The source made the active and inactive calls. Rule for the calls: active = growth percent below 10; inactive = the rest.
Readout kind: growth

Look up growth for this compound: Cc1ccccc1Nc1n[nH]c(Cc2ccccc2)n1
107% (inactive)

Would you mind doing CCOC(=O)C#Cc1c(C(=O)OCC)nnn1[C@@H]1O[C@H](COC(C)=O)[C@@H](OC(C)=O)[C@H]1OC(C)=O as well?
91.5% (inactive)

Would you mind doing CC(=O)Nc1ccc(/C=N/N2CCCCCC2)cc1 as well?
111% (inactive)

Would you mind doing COc1ccc(/C=C(\C#N)c2cc(OC)c(OC)c(OC)c2)cc1 as well?
17.9% (inactive)

Would you mind doing O=C(NCCN1CCCC1)n1cc(-c2ccncc2)c(-c2cc(O)cc(Cl)c2)n1 as well?
109% (inactive)

Would you mind doing C=C(C)[C@@H]1CC[C@]2(C(=O)O)CC[C@]3(C)[C@H](CC[C@@H]4[C@@]5(C)C[C@@H](CC#Cc6ccc(C(C)=O)s6)[C@H](O)C(C)(C)[C@@H]5CC[C@]43C)[C@@H]12 as well?
89.1% (inactive)

Would you mind doing C[Si](C)(C)C(c1ccccc1)c1ccccc1 as well?
97.1% (inactive)

Would you mind doing CC(C)(C)[Si](C)(C)OC1[C@@H](O[Si](C)(C)C(C)(C)C)[C@@H](CNC(=O)NC(=O)NC(=O)CCl)O[C@H]1n1cnc2c(NC(=O)Nc3ccccc3)ncnc21 (some centres undefined) as well?
-51.8% (active)

Would you mind doing CCOC(=O)C(CCCCC(NC(C)=O)(C(=O)OCC)C(=O)OCC)(NC(C)=O)C(=O)OCC as well?
106% (inactive)

* * *

Test system: HT29 colon
Experiment: NCI-60 one-dose screen, 48 h (100 = growth as untreated, 0 = no growth, -100 = all killed)
Conditions: 10 µM unless noted
This is part of a sample that, as a whole, favours compounds with a hit. Of some 83,000 tested, about 20% had one in any assay. Active and inactive are the calls of the source. Rule for the calls: active = growth percent below 10; inactive = the rest.
Field: growth. Provide a value for each of the compounds that follow.

I'm curious: which growth was measured for CCCCSc1ncnc2c1ncn2C1CCCCO1 (configuration not stated) tested on HT29 colon?
109% (inactive)

Would you mind doing Clc1ccc(C2=NN[C@H](c3cn(-c4ccccc4)nc3-c3ccccc3)C2)cc1 as well?
69.5% (inactive)

Would you mind doing Brc1ccsc1Br as well?
105% (inactive)

Would you mind doing O=S(=O)(Cc1ccc(Cl)cc1Cl)c1ccc(Cl)cc1 as well?
9.72% (active)

Would you mind doing c1cc2c(cc1-c1cnc3nonc3n1)OCO2 as well?
109% (inactive)

Would you mind doing CS(=O)(=O)c1ccc(C(=O)N/N=C/c2ccc3c(c2)OCO3)cc1 as well?
88.9% (inactive)

Would you mind doing Cc1cc(O)c2cc3c(O)c(O)ccc3cc2c1 as well?
125% (inactive)

Would you mind doing O=c1c2cc(Br)cc(Br)c2nc(-c2ccc(Cl)cc2)n1/N=C\c1ccccc1F as well?
77.3% (inactive)

Would you mind doing CC(C)c1nc2ccccc2n1CC(=O)N/N=C/c1cccc(O)c1 as well?
104% (inactive)

Would you mind doing c1ccc(-c2ccc(-c3ccccc3)[nH]2)cc1 as well?
101% (inactive)

Would you mind doing COc1ccc(-c2cc(-c3ccc(OC)cc3)c3sc(=O)[nH]c3n2)cc1 as well?
102% (inactive)

Would you mind doing O=C1c2cccc3cccc(c23)C(=O)N1CCCCCCCCCCN1C(=O)c2cccc3cccc(c23)C1=O as well?
106% (inactive)

Would you mind doing O=S(=O)(Nc1ccc2ccccc2c1)N1CCCCC1 as well?
40.9% (inactive)

Would you mind doing CS(=O)(=O)c1ccc(C(=O)N/N=C/c2ccccc2Cl)cc1 as well?
104% (inactive)

Would you mind doing N/C(=N\OC(=O)c1ccccc1)C(Cc1ccccc1)C(=O)NOC(=O)c1ccccc1 (configuration not stated) as well?
85.7% (inactive)

Would you mind doing COc1cccc(C2C(C#N)=C(N)Oc3cc4c(cc32)OCO4)c1 (configuration not stated) as well?
8.91% (active)

Would you mind doing Cc1cc2nc(CN)[nH]c2cc1C as well?
51.3% (inactive)

Would you mind doing CCOC(=O)Nc1ccc2nc(Sc3ccc(Cl)cc3)sc2c1 as well?
19.4% (inactive)

Would you mind doing O=[N+]([O-])c1ccc(N/N=C/c2ccccc2O)nc1 as well?
47% (inactive)

Would you mind doing CSc1ccc(/C=C2\C=C(CC(=O)NCc3ccc(C(=O)c4ccccc4)cc3)c3cc(F)ccc32)cc1 as well?
-15.1% (active)

Would you mind doing NC(N)=N/N=C/c1cccc(Cl)c1Cl as well?
24% (inactive)

Would you mind doing Nc1nc(N)c2cc(NCc3ccc(Cl)c(Cl)c3)ccc2n1 as well?
-76.3% (active)

Would you mind doing C=CC(=O)N1CN(C(=O)C=C)CN(C(=O)C=C)C1 as well?
26.2% (inactive)

Would you mind doing C=C(C)[C@@H]1CC[C@]2(C(=O)NS(=O)(=O)c3ccccc3)CC[C@]3(C)[C@H](CC[C@@H]4[C@@]5(C)CC[C@H](OC(=O)NS(=O)(=O)c6ccccc6)C(C)(C)[C@@H]5CC[C@]43C)[C@@H]12 as well?
20.8% (inactive)

Would you mind doing C[C@@H]1N=C(c2ccc3ccccc3c2)Nc2nc3ccccn3c2C1=O as well?
5.93% (active)

Would you mind doing c1csc(-c2cnc3nonc3n2)c1 as well?
91.2% (inactive)

Would you mind doing O=C(Nc1ccccc1)c1cc2ccccc2s1 as well?
104% (inactive)

Would you mind doing Oc1ccc(-c2nnc3c4[nH]ccc4ncn23)cc1 as well?
98.3% (inactive)

Would you mind doing CC(C)(C)c1nn(-c2ccccc2)c2c1C(=O)CSC(c1ccc3c(c1)OCO3)N2 (configuration not stated) as well?
100% (inactive)

Would you mind doing Clc1ccc(Cl)c(N=Cc2ccc3c(c2)OCO3)c1 as well?
110% (inactive)

Would you mind doing NS(=O)(=O)c1ccc(CCn2c(SCC(=O)N/N=C/c3ccccc3O)nc3ccccc3c2=O)cc1 as well?
10% (active)

Would you mind doing COc1ccc2nc3cc(Cl)ccc3c(NC(=O)CSc3ccc(Cl)cc3)c2c1 as well?
-78.3% (active)

Would you mind doing CC1(C)OC2OC3C(CN)OC(c4ccccc4)OC3C2O1 (configuration not stated) as well?
106% (inactive)

Would you mind doing COc1ccc(C2=NNC(c3ccc(Oc4nc5c(c(=O)n(C)c(=O)n5C)n4C)c(OC)c3)C2)cc1 (configuration not stated) as well?
95.5% (inactive)

Would you mind doing CCCCCCCC/C=C/CCCCCCCC1=NC(C)(C)CN1C(C)C as well?
-51.3% (active)

Would you mind doing Clc1cc2nc(-c3ccccc3)c(-c3ccccc3)nc2cc1Cl as well?
88.5% (inactive)

Would you mind doing CN1C2CCC1/C(=C\c1ccc(F)cc1)C(=O)/C2=C/c1ccc(F)cc1 as well?
15.5% (inactive)

Would you mind doing C=C1C(=O)O[C@H]2[C@H]1CC/C(COC(=O)N[C@@H](Cc1c[nH]c3ccccc13)C(=O)OC)=C\CC[C@@]1(C)O[C@@H]21 as well?
-29.5% (active)

Would you mind doing C=CCN(CC#N)CC=C as well?
94.5% (inactive)

Would you mind doing C(=Nc1ccc(-c2ccc(N=Cc3ccccc3)cc2)cc1)c1ccccc1 as well?
93.9% (inactive)

Would you mind doing Nc1ccc(C2=NNC(=O)Cc3cc4c(cc32)OCCO4)cc1Cl as well?
9.09% (active)

Would you mind doing O=C(Nc1cccc(-n2ccc3c(NC(=O)c4ccccc4)nccc32)c1)c1ccc(N2CCOCC2)c(C(F)(F)F)c1 as well?
2.15% (active)
